meta.source: ChEMBL document CHEMBL4725345

- assayed_system: Dual specificity protein kinase CLK3 (Homo sapiens)
- Sequence (P49761 whole entry): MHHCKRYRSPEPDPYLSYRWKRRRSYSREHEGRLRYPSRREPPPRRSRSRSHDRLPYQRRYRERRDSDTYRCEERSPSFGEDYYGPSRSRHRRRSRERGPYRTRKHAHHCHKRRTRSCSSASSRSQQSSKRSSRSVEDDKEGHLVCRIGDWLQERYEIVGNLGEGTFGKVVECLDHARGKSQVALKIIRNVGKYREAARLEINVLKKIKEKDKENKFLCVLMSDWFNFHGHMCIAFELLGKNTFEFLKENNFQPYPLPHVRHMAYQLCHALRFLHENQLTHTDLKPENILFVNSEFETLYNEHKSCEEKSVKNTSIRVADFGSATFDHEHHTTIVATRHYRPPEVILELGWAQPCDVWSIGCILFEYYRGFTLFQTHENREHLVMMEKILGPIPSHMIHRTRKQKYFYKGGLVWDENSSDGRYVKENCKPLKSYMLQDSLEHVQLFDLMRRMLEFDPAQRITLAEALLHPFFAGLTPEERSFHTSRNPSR
- assay_comment: Inhibition of recombinant CLK3 (unknown origin) using Ac-ERMRPRKRQGSVdP(Sox)G-NH2 as substrate after 5 mins by Omnia Kinase Assay
pKi: −log10 of the molar value.

compound | pKi
Cn1c2c(c3ccc(Cl)c(Cl)c31)C(C#N)C1(CCNCC1)NC2=O (stereo unspecified) | 4.57

* * *

Target chain: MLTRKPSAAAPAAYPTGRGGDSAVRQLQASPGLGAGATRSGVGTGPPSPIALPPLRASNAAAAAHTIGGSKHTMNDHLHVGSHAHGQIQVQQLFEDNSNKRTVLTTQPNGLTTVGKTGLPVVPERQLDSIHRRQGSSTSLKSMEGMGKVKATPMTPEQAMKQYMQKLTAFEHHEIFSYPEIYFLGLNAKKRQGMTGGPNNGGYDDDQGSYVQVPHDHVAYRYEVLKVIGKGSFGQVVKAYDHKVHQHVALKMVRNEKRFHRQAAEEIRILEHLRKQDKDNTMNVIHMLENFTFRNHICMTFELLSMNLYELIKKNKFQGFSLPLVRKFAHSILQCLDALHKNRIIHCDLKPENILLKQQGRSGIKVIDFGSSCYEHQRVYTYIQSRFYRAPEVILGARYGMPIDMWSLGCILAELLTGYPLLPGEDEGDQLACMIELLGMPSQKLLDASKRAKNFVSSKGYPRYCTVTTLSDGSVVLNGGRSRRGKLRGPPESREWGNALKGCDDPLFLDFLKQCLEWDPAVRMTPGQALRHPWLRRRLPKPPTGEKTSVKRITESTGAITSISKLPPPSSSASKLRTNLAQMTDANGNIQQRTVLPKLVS

molecule | IC50 [nM]
Cn1cc(-c2ccc3occ(-c4cccc(-c5ccncc5)c4)c3n2)cn1 | 1310

* * *

- assayed_system: Dual specificity protein kinase CLK1 (Homo sapiens, UniProt P49759)
- Sequence (P49759 whole entry, looked up): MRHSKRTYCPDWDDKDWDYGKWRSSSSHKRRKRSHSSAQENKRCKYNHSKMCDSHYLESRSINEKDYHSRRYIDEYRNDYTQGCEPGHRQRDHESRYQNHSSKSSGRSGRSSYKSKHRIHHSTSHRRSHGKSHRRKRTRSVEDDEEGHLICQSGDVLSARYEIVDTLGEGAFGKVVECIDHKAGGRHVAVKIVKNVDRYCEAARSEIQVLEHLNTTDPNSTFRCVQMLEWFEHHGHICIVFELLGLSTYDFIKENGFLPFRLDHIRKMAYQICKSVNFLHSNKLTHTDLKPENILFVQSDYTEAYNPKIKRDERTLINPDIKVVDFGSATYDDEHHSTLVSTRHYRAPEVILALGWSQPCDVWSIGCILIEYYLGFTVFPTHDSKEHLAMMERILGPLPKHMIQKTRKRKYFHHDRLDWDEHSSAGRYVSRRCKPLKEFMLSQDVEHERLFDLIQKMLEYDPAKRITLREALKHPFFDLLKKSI
- measurement_context: dose 10.0 µM, time 10.0 min
ΔTm overview
property_name: ΔTm (°C)

molecule | inequality_sign | number
CCOc1ccc2c(-c3ccnc(Nc4cc(OC)cc(C(F)(F)F)c4)n3)cnn2n1 | = | 9
Nc1nccc(-c2ccc3noc(-c4ccc(Cl)cc4)c3c2)n1 | > | 6
CCN1/C(=C\C(C)=O)Sc2ccc(OC)cc21 | > | 6
Cn1cc(-c2ccc3occ(-c4cccc(Oc5ccccc5)c4)c3n2)cn1 | = | 12.3
O=C1NCc2ccc3c(-c4cccc(Cl)c4)c[nH]c3c21 | = | 9.8
CC(=O)c1cccc(-c2cnc3ccc(NCC4CC4)nn23)c1 | > | 4
COC(=N)c1nc2ccc3ncnc(Nc4ccc(OC)cc4F)c3c2s1 | = | 10.3

* * *

- assayed_system: Dual specificity tyrosine-phosphorylation-regulated kinase 1A (Homo sapiens)
property_name: IC50 (nM)

molecule | assayed_system | number
Cn1cc(-c2ccc3occ(-c4cccc(-c5ccncc5)c4)c3n2)cn1 | Dual specificity tyrosine-phosphorylation-regulated kinase 1A (Homo sapiens) | 213

* * *

- assayed_system: Dual specificity protein kinase CLK4 (Homo sapiens)
- Sequence (Q9HAZ1 whole entry, looked up): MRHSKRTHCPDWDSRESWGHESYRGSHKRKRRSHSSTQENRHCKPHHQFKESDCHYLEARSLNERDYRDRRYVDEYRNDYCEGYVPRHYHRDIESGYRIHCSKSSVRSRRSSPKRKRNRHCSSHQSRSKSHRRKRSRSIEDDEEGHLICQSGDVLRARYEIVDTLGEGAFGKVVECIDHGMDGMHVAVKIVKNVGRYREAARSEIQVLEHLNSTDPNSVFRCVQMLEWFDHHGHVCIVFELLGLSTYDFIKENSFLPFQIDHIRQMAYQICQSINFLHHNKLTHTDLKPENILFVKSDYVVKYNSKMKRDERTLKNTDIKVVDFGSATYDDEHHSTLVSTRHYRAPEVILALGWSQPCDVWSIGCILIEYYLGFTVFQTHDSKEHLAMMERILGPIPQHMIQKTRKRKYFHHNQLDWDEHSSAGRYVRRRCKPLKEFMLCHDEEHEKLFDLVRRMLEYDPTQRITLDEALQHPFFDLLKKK
- measurement_context: dose 10.0 µM, time 10.0 min

compound | inequality_sign | ΔTm / °C
COC(=N)c1nc2ccc3ncnc(Nc4ccc(OC)cc4F)c3c2s1 | = | 9.6
CC(=O)c1cccc(-c2cnc3ccc(NCC4CC4)nn23)c1 | > | 6
CCN1/C(=C\C(C)=O)Sc2ccc(OC)cc21 | > | 6
O=C1NCc2ccc3c(-c4cccc(Cl)c4)c[nH]c3c21 | = | 10.1
CCOc1ccc2c(-c3ccnc(Nc4cc(OC)cc(C(F)(F)F)c4)n3)cnn2n1 | = | 9
Cn1c2c(c3ccc(Cl)c(Cl)c31)C(C#N)C1(CCNCC1)NC2=O (stereo unspecified) | > | 4
